Values compiled from patent US11203574B2.

molecular target: human plasma kallikrein (Homo sapiens (Human), UniProt P03952); assay: Plasma kallikrein activity assay (chromogenic substrate S2302); type: biochemical; conditions: 2 nM kallikrein, 80 μM S2302, 30° C., pH 7.8; Ki by Cheng-Prusoff equation; values given as ranges; read-out: Ki
Sequence (P03952 whole entry, looked up): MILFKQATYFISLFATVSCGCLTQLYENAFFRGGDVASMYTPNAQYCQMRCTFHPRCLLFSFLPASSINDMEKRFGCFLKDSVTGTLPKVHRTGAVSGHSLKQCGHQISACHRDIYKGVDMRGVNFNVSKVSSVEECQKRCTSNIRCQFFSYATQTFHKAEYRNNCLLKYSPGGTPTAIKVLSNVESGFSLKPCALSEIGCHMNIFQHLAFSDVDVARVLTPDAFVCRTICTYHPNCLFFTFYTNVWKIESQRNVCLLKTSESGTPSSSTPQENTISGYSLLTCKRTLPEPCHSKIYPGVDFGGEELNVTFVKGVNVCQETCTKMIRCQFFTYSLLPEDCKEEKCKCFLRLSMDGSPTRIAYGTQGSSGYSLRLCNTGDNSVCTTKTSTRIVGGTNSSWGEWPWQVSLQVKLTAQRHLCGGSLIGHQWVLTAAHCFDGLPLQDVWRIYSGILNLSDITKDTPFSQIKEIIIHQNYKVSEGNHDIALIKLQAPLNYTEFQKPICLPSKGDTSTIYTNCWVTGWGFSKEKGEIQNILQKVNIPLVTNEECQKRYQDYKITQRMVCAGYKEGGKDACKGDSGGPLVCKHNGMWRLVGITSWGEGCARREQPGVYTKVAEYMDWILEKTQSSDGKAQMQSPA
Sequence (P03952 whole entry partner, looked up): as the sequence (P03952 whole entry, looked up) above
pKi: −log10 of the molar value.

>  <Compound>
NCc1cccc(-n2nc(C(F)(F)F)cc2C(=O)Nc2cc(C(=CCC3CC3)c3ccccc3)ccc2F)c1 [252c]

>  <pKi>
7.30 to 10.00

$$$$
>  <Compound>
NCc1cccc(-n2nc(C(F)(F)F)cc2C(=O)Nc2cccc(C(NCC3CC3)c3ccccc3)c2F)c1 (stereo not drawn) [88b]

>  <pKi>
7.30 to 10.00

$$$$
>  <Compound>
NCc1cccc(-n2nc(C(F)(F)F)cc2C(=O)Nc2cccc(C(OCC3CC3)c3cccc(N)c3)c2)c1 (single isomer, unassigned; (+)) [64b]

>  <pKi>
7.30 to 10.00

$$$$
>  <Compound>
NCc1cccc(-n2nc(C(F)(F)F)cc2C(=O)Nc2cccc(C(NCC3CC3)c3ccc(S(N)(=O)=O)cc3)c2)c1 (stereo not drawn) [112g]

>  <pKi>
7.30 to 10.00

$$$$
>  <Compound>
NCc1cccc(-n2nc(C(F)(F)F)cc2C(=O)Nc2cc(C(CCC3CC3)n3ccncc3=O)ccc2F)c1 (stereo not drawn) [249b]

>  <pKi>
7.30 to 10.00

$$$$
>  <Compound>
NCc1cccc(-n2nc(C(F)(F)F)cc2C(=O)Nc2cc(C(NCC3CC3)c3ccccn3)ccc2F)c1 (stereo not drawn) [100e]

>  <pKi>
7.30 to 10.00

$$$$
>  <Compound>
CCOC(c1ccccc1)c1cccc(NC(=O)c2cc(C(F)(F)F)nn2-c2cccc(CN)c2)c1 (stereo not drawn) [18g]

>  <pKi>
7.00 to 7.30

$$$$
>  <Compound>
N=C(N)c1cccc(-n2nc(C(F)(F)F)cc2C(=O)Nc2cc(C(NCC3CC3)c3ccccc3)ccc2F)c1 (single isomer, unassigned; (-)) [227d]

>  <pKi>
7.30 to 10.00

$$$$
>  <Compound>
NCc1cccc(-n2nc(C(F)(F)F)cc2C(=O)Nc2cccc(C(NCC3CC3)c3c(F)cccc3F)c2)c1 (stereo not drawn) [198f]

>  <pKi>
7.30 to 10.00

$$$$
>  <Compound>
NCc1cccc(-n2nc(C(F)(F)F)cc2C(=O)Nc2cccc(C(O)(CCC3CC3)c3ccncc3)c2)c1 (stereo not drawn) [92g]

>  <pKi>
7.30 to 10.00

$$$$
>  <Compound>
CCC(CO)NC(c1ccccc1)c1cccc(NC(=O)c2cc(C(F)(F)F)nn2-c2cccc(CN)c2)c1 (stereo not drawn) [168b]

>  <pKi>
7.30 to 10.00

$$$$
>  <Compound>
NCc1cccc(-n2nc(C(F)(F)F)cc2C(=O)Nc2cccc(C(O)(CCC3CC3)c3ccccc3)c2)c1 (racemic) [46g]

>  <pKi>
7.30 to 10.00

$$$$
>  <Compound>
N#Cc1cccc(C(NCC2CC2)c2cccc(NC(=O)c3cc(C(F)(F)F)nn3-c3cccc(CN)c3)c2)c1 (stereo not drawn) [152d]

>  <pKi>
7.30 to 10.00

$$$$
>  <Compound>
Cc1cc(C(N)(CCC2CC2)c2ccc(F)c(NC(=O)c3cc(C(F)(F)F)nn3-c3cccc(CN)c3)c2)ccn1 (single isomer, unassigned; (+)) [266j]

>  <pKi>
7.30 to 10.00

$$$$
>  <Compound>
NCc1cccc(-n2nc(C(F)(F)F)cc2C(=O)Nc2cccc(C(O)c3ccccc3)c2F)c1 (stereo not drawn) [35g]

>  <pKi>
7.00 to 7.30

$$$$
